Quick list: Kd per entry.
- target under test: human TGFßRII (antigen of the Octet experiments) (human, UniProt P37173 23-166)
- Sequence (P37173 23-166): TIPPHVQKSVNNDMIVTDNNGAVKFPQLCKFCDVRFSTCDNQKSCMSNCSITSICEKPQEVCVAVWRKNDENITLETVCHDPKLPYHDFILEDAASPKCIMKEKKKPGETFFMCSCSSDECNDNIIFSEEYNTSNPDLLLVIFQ
- measurement description: BLI (Octet)
Reply with just the number (in nM).

H1 L1.17 XENP34580 (antibody, V domains shown) VH: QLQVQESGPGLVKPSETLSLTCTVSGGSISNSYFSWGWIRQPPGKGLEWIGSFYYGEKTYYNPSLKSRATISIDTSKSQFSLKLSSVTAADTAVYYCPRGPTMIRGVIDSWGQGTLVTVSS VL: EIVLTQSPATLSLSPGERATLSCRASQSVRSYLTWYQQKPGQAPRLLIYDASNRATGIPARFSGSGSGTDFTLTISSLEPEDFAVYYCQQRSNWPPTFGQGTKVEIK ... 0.622
H1 L1.34 XENP34597 (antibody, V domains shown) VH: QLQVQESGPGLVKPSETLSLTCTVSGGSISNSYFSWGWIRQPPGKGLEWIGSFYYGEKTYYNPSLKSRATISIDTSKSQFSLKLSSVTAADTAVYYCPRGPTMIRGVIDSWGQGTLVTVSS VL: EIVLTQSPATLSLSPGERATLSCRASQSVRSYLAWYQQKPGQAPRLLIYDASNRATGIPARFSGSGSGTDFTLTISSLQSEDFAVYYCQQRSNWPPTFGQGTKVEIK ... 1.61

Pending binder:
Qu. Give the measured Kd of H1 L1.36 XENP34599 (antibody, V domains shown) VH: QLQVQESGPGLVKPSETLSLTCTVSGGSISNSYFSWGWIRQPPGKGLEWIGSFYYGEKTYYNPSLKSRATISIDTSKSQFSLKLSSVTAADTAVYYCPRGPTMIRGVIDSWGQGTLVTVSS VL: EIVLTQSPATLSLSPGERATLSCRASQSVRSYLAWYQQKPGQAPRLLIYDASNRATGIPARFSGSGSGTDFTLTISSLEPEDFAVYYCQQESNWPPTFGQGTKVEIK .
Ans. 59.3
